The following molecules are shown together with reported growth values.
System: UO-31 renal
Assay: NCI-60 one-dose screen, 48 h (100 = growth as untreated, 0 = no growth, -100 = all killed)
Conditions: 10 µM unless noted
This is part of a sample that, as a whole, favours compounds with a hit. Of some 83,000 tested, about 20% had one in any assay. The source made the active and inactive calls. How the source made its calls: active means growth percent below 10; inactive means the rest.

molecule | growth
COC(=O)C1=C(C(=O)ON)[C@@H]2C=C[C@@]1([C@@H](Cc1ccccc1)Nc1ccccc1)O2 | 71.1% (inactive)
O=C(Cn1c(C(=O)c2ccccc2)nc2ccccc21)c1ccc(F)cc1 | 80.6% (inactive)
CCCCCCCC(=O)OCC/C=C/C1OC1C1OC(=O)/C=C\C=C\C(=O)N(C(C)=O)C(=O)/C=C(/C)CCC2OC2C1OC(=O)NC(C)=O (stereo not given) | 69% (inactive)
Cc1cc2nc3c4cc([N+](=O)[O-])ccc4n(CCN(C)C)c3nc2cc1C | -41.9% (active)
CCCC/C=N/NC(=S)NCc1ccccc1 | 93.3% (inactive)
COc1ccc(CNCCN2C(=O)c3ccc4c5c(ccc(c35)C2=O)C(=O)N(CCNCc2ccc(OC)c(OC)c2OC)C4=O)c(OC)c1OC | -19.6% (active)
O=S(=O)(NCCNc1nccc(-c2c(-c3cccc(F)c3)nc3sccn23)n1)c1ccc(Br)cc1 | 21.2% (inactive)
CCCOC(=O)N[C@H]1CCc2cc(OC)c(OC)c(OC)c2-c2ccc(SC)c(=O)cc21 | 38.3% (inactive)
CCc1c(Cl)nc(N)nc1Nc1ccc(C)c(C)c1 | 90.8% (inactive)
Fc1ccc2c(-c3cncn3CCc3ccccc3)c[nH]c2c1 | 68.1% (inactive)

* * *

System: COLO 205 colon
Test: NCI-60 one-dose screen, 48 h
Conditions: 10 µM unless noted
Experimental: Cells are grown in 96 well plates and exposed to the test compound for 48 hours. Compounds are tested at a single concentration, which is 10^-5 M for most compounds. The reported endpoint is percent growth (GI% or GIPRCNT), where numbers from 0 - 100% represent growth inhibition, and numbers from -100% - 0 represent cell death. For example, a value of 40 represents 60% growth inhibition. A value of 0 means no net growth occurred over the course of the experiment. […]
This is part of a sample that, as a whole, favours compounds with a hit. Of some 83,000 tested, about 20% had one in any assay. The source made the active and inactive calls. The calls were made as follows: active = growth percent below 10; inactive = the rest.
Outcomes: yes = active, no = inactive

molecule | tgt | qualitative.label
CCCCCN1C=C/C(=C\C(=O)N2CCCc3ccccc32)c2ccccc21 | COLO 205 colon | no
COc1ccc(C/C(=C(\C)c2ccc(OCCN3CCCC3)cc2)c2ccc(OCCN3CCCC3)cc2)cc1 | COLO 205 colon | yes
Cc1nn(-c2ccccc2)c(Cl)c1/C=C/C(=O)c1ccc(F)cc1 | COLO 205 colon | no
COc1cc(CC(=O)c2ccc(O)c(OC)c2)ccc1O | COLO 205 colon | no
COc1cc(/C=C/C(=O)c2nc3cc(F)ccc3nc2C)cc(OC)c1OC | COLO 205 colon | no
Brc1ccc(Nc2csc(-c3ccccn3)n2)cc1 | COLO 205 colon | no
CCOC(=O)c1cc(C#N)n2ccc3ccccc3c12 | COLO 205 colon | no
CCCCC/C=C/C(C)=C/C1CC(C)C/C=C/CCC(O)C(OC(N)=O)CCC(C)CC(O)C(C)C(=O)O1 (configuration not stated) | COLO 205 colon | no
O=Cc1ccc(-c2cn3ccnc3c(-c3ccc4ncn(Cc5ccccc5)c4c3)n2)cc1 | COLO 205 colon | no
NS(=O)(=O)c1ccc(CCN2C(=O)C=CC2=O)cc1 | COLO 205 colon | no
N#CC(C(=O)/C(=N/NC(=O)c1ccccc1O)C(C#N)c1ccccc1)c1ccccc1 (configuration not stated) | COLO 205 colon | no
O=C(c1ccccc1)N1N=C(c2ccc(-n3ccc(C(F)(F)F)n3)c(F)c2)CC1c1ccc[nH]1 (configuration not stated) | COLO 205 colon | no
COc1ccc(-c2[nH][nH]c(=O)c2-c2nc3ccccc3s2)cc1 | COLO 205 colon | no
Oc1ccc(C2c3ccccc3Oc3ccccc32)c2cccnc12 | COLO 205 colon | no
CC(C)(C)c1cc(C=O)cc(C(C)(C)C)c1O | COLO 205 colon | no
CCOC(=O)c1nc2c3ccccc3ccn2c1C(=O)OCC | COLO 205 colon | no
CC(C)c1ccc(Nc2ccc3c(OCCCN4CCN(C)CC4)cccc3n2)cc1 | COLO 205 colon | yes
CC1=CCC(OC(=O)C(C)(O)CCC(O)(C(=O)OC2(C)C=CC(O)(C(C)C)CC2)C(C)C)(C(C)C)CC1 (configuration not stated) | COLO 205 colon | no
COc1ccc(-c2nc3sccn3c2/C=C/C(=O)c2ccc3c(c2)OCO3)cc1 | COLO 205 colon | no
Cc1nnc2c(Cc3ccccc3)nc3ccccc3n12 | COLO 205 colon | no
NCCCCCCNc1cc(-c2cccc(OC(F)(F)F)c2)nc2ccc(N3CCCC3)cc12 | COLO 205 colon | yes
COc1ccc(C(=O)C2C(C#N)C(C#N)C3C=Cc4ccccc4N32)cc1 (configuration not stated) | COLO 205 colon | yes

* * *

System: HCT-15 colon
Assay: NCI-60 one-dose screen, 48 h
Conditions: 10 µM unless noted
Compounds without any hit were thinned out: in the full panel of roughly 83,000, 20% have a hit. Activity calls are given as the source filed them. Rule for the calls: active = growth percent below 10; inactive = the rest.
Outcomes: active, inactive

molecule | qualitative.label
C=C1C(=O)O[C@H]2[C@H]1CC/C(COC(=O)NCC(C)c1ccc(CC(C)C)cc1)=C\CC[C@@]1(C)O[C@@H]21 (some centres undefined) | active
COc1ccc2[nH]c(=O)c(CN3CCN(c4nccc(-c5ccc(Cl)cc5)n4)CC3)cc2c1 | inactive
O=C(/C(=C\c1ccc([N+](=O)[O-])cc1)S(=O)Cc1ccc(Cl)cc1)c1ccc(Cl)cc1 (centres undefined) | inactive
CC1(C)CC[C@]2(C(=O)O)CC[C@]3(C)C(=CC[C@@H]4[C@@]5(C)Cc6c([nH]c7ccccc67)C(C)(C)[C@@H]5CC[C@]43C)[C@@H]2C1 | inactive
ClC1=C(Br)C(Br)(Br)C(=C(Br)Br)C1(Br)Br | inactive
O=[N+]([O-])c1ccc(N=Nc2cc(S(=O)(=O)O)c3cccc(S(=O)(=O)O)c3c2O)cc1 | inactive
O=C1c2ccccc2C(=O)c2c([N+](=O)[O-])ccc(Cl)c21 | inactive
O=C(NCCNc1nccc(-c2c(-c3cccc(F)c3)nc3sccn23)n1)c1ccc(Cl)cc1 | inactive
C=C1C(=O)O[C@H]2[C@H]1CC/C(CNC(=O)CCc1ccc(OC)cc1)=C\CC[C@@]1(C)O[C@@H]21 | inactive
Cc1nc2ccc(Cl)cn2c1-c1nnc(SCc2ccc([N+](=O)[O-])cc2)o1 | inactive
O=C(N/N=C/c1cc2ccccc2n2nnnc12)Nc1ccccc1 | inactive
CCOC(=O)CC1CSC(N/N=C/c2ccc(-n3cccn3)cc2)=N1 (centres undefined) | inactive
CCC(CC)NCC(C)(C)O | inactive
COc1ccc(C(=O)c2cc(C)c(OC)c(C)c2)c(OC)c1NC(C)=O | inactive
COc1cc2c(cc1OC)C(=O)/C(=C/c1cc(C)c(O)c(C)c1)S2 | inactive
COc1ccc(-c2cnc3c(-c4cccc5cnccc45)cnn3c2)cc1 | inactive
COc1ccc(/C=C(\C#N)n2nc3cccc(F)c3n2)cc1 | inactive
COc1cc(C2=NN(C(C)=O)C(c3cc(OC)c(OC)c(OC)c3)C2)ccc1O (centres undefined) | active
COc1ccc(C(=O)C2C(C#N)C(C#N)C3c4ccccc4C=CN23)cc1 (centres undefined) | inactive
CCCOC(=O)N[C@H]1CCc2c(Cl)c(OC)c(OC)c(OC)c2-c2ccc(SC)c(=O)cc21 | inactive
COc1cc2oc(-c3cccc(C(=O)Nc4ccc5c(c4)OCO5)c3)cc(=O)c2c(O)c1OC | inactive
CCOc1ccc(/C=N/Nc2cc(C)nc3ccc(Br)cc23)cc1 | inactive
Oc1ccc(OCCOc2ccc(O)cc2)cc1 | inactive
COc1cccc(-c2ccc3c(c2)NC(=O)/C3=C\c2ccc[nH]2)c1 | inactive
CCc1ccc(-c2cn3ccnc3c(-c3ccc4ncn(Cc5ccccc5)c4c3)n2)cc1 | inactive
CCN(CC)c1ccc(/C=N/NC(=O)CSc2nc3ccccc3c(=O)n2CCc2ccc(S(N)(=O)=O)cc2)c(O)c1 | inactive
CC(Sc1nc2sc3c(c2c(=O)n1-c1ccc(Cl)cc1)CCCC3)C(=O)Nc1nc(-c2ccc(Br)cc2)cs1 (centres undefined) | inactive
CCOC(=O)Oc1c(OC)cc(C(=O)c2ccc(OC)c(OC(=O)CCl)c2OC)cc1OC | inactive
O=C(c1nnc(Nc2ccccc2Br)o1)c1c[nH]c2ccccc12 | inactive
Cn1cc(-c2csc(-c3c[nH]c4ccccc34)n2)c2ccnc(Cl)c21 | active
O=C(NO)c1ccc(-n2nc(-c3ccccc3)c3ccccc32)cc1 | inactive
NS(=O)(=O)c1ccc(CCN2C(=O)C=CC2=O)cc1 | inactive
Cn1ccnc1C(=O)/C=C/c1ccc(CC(=O)NC2CCCCC2)cc1 | inactive
C=C(C)[C@@H]1CC[C@]2(C(=O)N3CCN(C)CC3)CC[C@]3(C)[C@H](CC[C@@H]4[C@@]5(C)CC[C@H](OCCC#N)C(C)(C)[C@@H]5CC[C@]43C)[C@@H]12 | inactive
O=C1Nc2ccccc2/C1=C\c1c(-c2ccccc2)nc2ccccn12 | inactive
COc1c(Cl)c2c(c(OC)c1OC)-c1ccc(SC)c(=O)cc1[C@@H](NC(=O)OCC(F)(F)F)CC2 | active
O=C(c1nc2ccccc2[nH]1)C1C(c2ccc(Br)cc2)C2CC3CCCC[C@H]3N2[C@@]12C(=O)Nc1cc(Cl)ccc12 (some centres undefined) | inactive
Cc1nn(-c2ccccc2)c(Cl)c1/C=N\N=c1/sc2ccccc2n1C | inactive
COc1cc2nc(-c3ccc(Cl)cc3)cc(OCCCN3CCOCC3)c2cc1OC | inactive
